Test system: tet operator sequence
Test: β-galactosidase activity of a tetracycline-regulated promoter in transformed E. coli with revTetR, in the presence and absence of anhydrotetracycline (atc)
Assay type: cell-based, Escherichia coli
Conditions: RevTetR isolate cultured in the presence of anhydrotetracycline (ATC)
Please provide measured β-Galactosidase Activity, Cultured With ATC for the entries that follow.

MOLECULE	VALUE_OBSERVED
TetRrevAD3/6: revTetR(BD) V20G A56P I59L R62R (protein, Modified tetracycline repressor, revTetR(BD) V20G A56P I59L R62R) MSRLDKSKVINSALELLNEGGIEGLTTRKLAQKLGVEQPTLYWHVKNKRALLDALPVELLARHHDYSLPAAGESWQSFLRNNAMSFRRALLRYRDGAKVHLGTRPDEKQYDTVETQLRFMTENGFSLRDGLYAISAVSHFTLGAVLEQQEHTAALTDRPAAPDENLPPLLREALQIMDSDDGEQAFLHGLESLIRGFEVQLTALLQIV	1.6494

We next turn to a different molecule, shown below.
Ask: Specify β-Galactosidase Activity, Cultured With ATC for TetRrevDox4-1: revTetR(BD) D53E A54S A61P (protein, Modified tetracycline repressor, revTetR(BD) D53E A54S A61P) MSRLDKSKVINSALELLNEVGIEGLTTRKLAQKLGVEQPTLYWHVKNKRALLESLAVEILPRHHDYSLPAAGESWQSFLRNNAMSFRRALLRYRDGAKVHLGTRPDEKQYDTVETQLRFMTENGFSLRDGLYAISAVSHFTLGAVLEQQEHTAALTDRPAAPDENLPPLLREALQIMDSDDGEQAFLHGLESLIRGFEVQLTALLQIV and stop.
Reply: 5.627

Numbers sourced from patent US20030186281A1.
